I'd appreciate it if you could supply pIC50 (FF) values for the items below.
target: RORγ (UniProt P51449); experiment: RORγ Gal4 Reporter Gene Assay in 293T cells (firefly and renilla luciferase); format: cell-based, human

Please look up its pIC50 (FF): Cc1n[nH]cc1-c1ccc(-c2cc(C(=O)NC3CCOCC3)c(C)n2CC2CCCCC2)cc1C(C)(C)C
6.6/7.4/7.5

How about CCN(C(C)(C)C)S(=O)(=O)c1ccc(-c2cc(C(=O)NCC(C)(C)O)c(C)n2CC2CCCCC2)cc1C(C)(C)C ?
6.5/7.7/7.2

How about Cc1c(C(=O)NN2CCOCC2)cc(-c2cc(C(C)(C)C)c3c(c2)C2(CCO3)CC2)n1CC1CCCCC1 ?
6.2/6.8/6.8

How about Cc1c(C(=O)NCC2CCS(=O)(=O)CC2)cc(-c2cc(C(C)(C)C)c3c(c2)C2(CCO3)CC2)n1CC1CCCCC1 ?
6.4/7.6/7.6
